assayed target: Gal(b1-4)GlcNAc(b1-2)[Gal(b1-4)GlcNAc(b1-6)]Man(a1-6)[GlcNAc(b1-4)][Gal(b1-4)GlcNAc(b1-2)Man(a1-3)]Man(b1-4)GlcNAc(b1-4)GlcNAc
experiment description: glycan array binding signal (z-score within array); higher = stronger binding
particulars: glycan notation: IUPAC condensed, linker removed
Many of the other results were omitted from the sample, so the strongest signals are more common in it than they were.
Collected glycan array binding signal (z-score) values appear next to each entry.
measured endpoint: glycan array binding signal (z-score)

binder: SP15308A-bot-339-19-339 (Bacteroides ovatus) (protein) ACNNEWEDEQYEQYISFKSPIPAGGEGVTDIYVRYKEDGKVTYRLPIVVSGSTTNTLDREVHIAVDKDTLETLNIERFSIHRPGLWYTALEEDKYDFPKTVHISAGSSVEQLNIDFNLQGIDMLEKWVLPLTIVDDPSYNYKSHPRKNYAKALLRVIPFNNYSGSYTSSAMKVYTYINGKPDTNARTANKRTGYVINDNTVFFYAGLISEDLDKEVREKYKINVHFNEDGTLHMEQGDPTNKMKFELIGTPTYSKTSVMDATRPYLERRYVQIMFEYDFEDFSYGGNGVDVIPIKYKVEGSMTLQRNINTQIPDEDQQIEW
measured endpoint: glycan array binding signal (z-score)
observed result: -0.304
--
binder: Si Bti9 1b-HA (Solanum lycopersicum) (protein) MFESRPRSVLSLGVFVILVYLSSVPLPVNSQCNRGCDLALASFYVWRGSNLTLISEMFSTSIADIVSYNNRDNIPNQDSVIAGTRINIPFRCDCLNDGEVLGHAFPYRVKSGDTYDLVARNYSDLTTAQWMMKFNSYPENNIPNTVNLSVVVNCSCGNSDVSKDFGLFVTYPVRAEDNLTSVASAANVSEDIIRRYNPAAVSILDIGQGIIYIPGRDRNGNFPPLPTSTDGLSGGAKAPLFFNPAFLYKVVELKLAGRSRTSGYPYDVPDYAGYPYDVPDYALEVLFQ
measured endpoint: glycan array binding signal (z-score)
observed result: -0.363
--
binder: Layilin (Mus musculus), Q8C351 (protein) MQPGAALQAMLLAVLLAKPRDSKGRLLSASDLDPRGGQLVCRGGTRRPCYKVIYFHDAFQRLNFEEAKETCMEDGGQLVSIETEDEQRLIEKFIENLLASDGDFWIGLKRLEEKQSNNTACQDLYAWTDGSTSQFRNWYVDEPSCGSEVCVVMYHQPSAPPGIGGSYMFQWNDDRCNMKNNFICKYHDDKPSTTPSIWPGGEATEPATPLLPEETQKEDTKETFKERREAALNLAYILIPSIPLFLLLVVTSAVCWVWICRRKREQTDPSTKEQHTIWPTPRQENSPNLDVYNVIRKQSEADLAEPRPDLKNISFRVCSGEAMPDDMSCDYENIAVNPSESGFVTLASMESGFVTNDIYEFSPDRMGRSKESGWVENEIYY
measured endpoint: glycan array binding signal (z-score)
observed result: -0.619
--
binder: DC-ASGPR-short (Homo sapiens) (protein) MTRTYENFQYLENKVKVQGFKNGPLPLQSLLQRLRSGPCHLLLSLGLGLLLLVIICVVGFQNSKFQRDLVTLRTDFSNFTSNTVAEIQALTSQGSSLEETIASLKAEVEGFKQERQAVHSEMLLRVQQLVQDLKKLTCQVATLNNNASTEGTCCPVNWVEHQDSCYWFSHSGMSWAEAEKYCQLKNAHLVVINSREEQNFVQKYLGSAYTWMGLSDPEGAWKWVDGTDYATGFQNWKPGQPDDWQGHGLGGGEDCAHFHPDGRWNDDVCQRPYHWVCEAGLGQTSQESH
measured endpoint: glycan array binding signal (z-score)
observed result: -0.282

Data origin, for the record: the supplement of paper PMC8728848
